Tested on: Candida albicans
assay_notes: Antifungal activity against CDR1 and CDR2 deficient Candida albicans DSY654 incubated for 48 hrs by alamar blue assay
Format: functional
condition_info: DSY654, 48 h
quantity_name: MIC80 (µg/mL)

| entry_smiles | test_value |
| --- | --- |
| C=C1CCC[C@@]2(C)C[C@@]3(O)OC(=O)C(C)=C3C[C@H]12 | 64 |

[1] C=C(CO)[C@H]1CC[C@]2(C)CCCC(=C)[C@H]2[C@H]1O
[2] C=C1CCC[C@@]2(C)C[C@@H]3OC(=O)C(=C)[C@@H]3C[C@H]12
[3] C=C1CCC[C@@]2(C)C[C@@H]3OC(=O)[C@@](C)(O)[C@@H]3C[C@H]12
Query string: hey, can you rank those molecules up there by MIC80? biggest number first please Provide the ranking by listing each label in its place in the requested order.
Result string: 1, 3, 2
